I'd be grateful if you could share measured DLS Intensity for these entries.
test: Dynamic light scattering (DLS); assay type: physicochemical; details: Table 4; 50 mM KPi, at the concentration under DLS conc.
Quick note: give the figure in kcps, leave out the unit.

Request: Data request, read-out DLS Intensity, for O=C1O/C(=C\Nc2ccc(Oc3ccccc3)cc2)c2ccccc21 [drawing 41]
Response: 16.2

Request: Likewise for O=C(N/N=C/c1ccccc1O)C(=O)N/N=C/c1ccccc1O ?
Response: 26.4

Request: Similarly, OB(O)c1cc2ccccc2s1 [Benzo[b]thiophene-2-boronic acid] ?
Response: 0.9

Request: Let us now turn to O=C1C(I)=CC(=C(c2cc(I)c(O)c(I)c2)c2ccccc2C(=O)O)C=C1I
Response: 42.2

Request: Proceed to CC(C)c1ccc(/C=C2/C(=O)Nc3ccccc32)cc1
Response: 43.8

Request: And Oc1ccc(/N=N/c2ccc(Br)cc2)cc1 [drawing 40] ?
Response: 12.6

Request: Would you mind doing O=C1C2C(C(=O)N1Nc1ccc([N+](=O)[O-])cc1[N+](=O)[O-])[C@@]1(Cl)C(Cl)=C(Cl)[C@]2(Cl)C1(Cl)Cl (stereo partly shown) as well?
Response: 24.9

====

test: Dynamic light scattering (DLS); assay type: physicochemical; conditions: DLS in 5 mM KPi
The threshold is inclusive: Diameter, 5 mM KPi of exactly 100 nm counts as 1; values below receive 0.

Request: Assess whether reported Diameter, 5 mM KPi for CC(C)c1ccc(/C=C2/C(=O)Nc3ccccc32)cc1 sits at 100 nm or higher.
Response: 1

Request: Next compound: O=C1C2C(C(=O)N1Nc1ccc([N+](=O)[O-])cc1[N+](=O)[O-])[C@@]1(Cl)C(Cl)=C(Cl)[C@]2(Cl)C1(Cl)Cl (stereo partly drawn)
Response: 1

Request: One more compound: O=C1C(I)=CC(=C(c2cc(I)c(O)c(I)c2)c2ccccc2C(=O)O)C=C1I
Response: 0

Request: And O=C(N/N=C/c1ccccc1O)C(=O)N/N=C/c1ccccc1O ?
Response: 1

Request: Oc1ccc(/N=N/c2ccc(Br)cc2)cc1 [drawing 40]
Response: 1

====

Record form. Attribute: ↑ IC50 vs. 10x β-lactamase. Fill in for each entry.
target: AmpC β-lactamase (Escherichia coli, UniProt P00811); conditions: Table 6; 10-fold increase in β-lactamase
Sequence (P00811 20-377 limits assumed): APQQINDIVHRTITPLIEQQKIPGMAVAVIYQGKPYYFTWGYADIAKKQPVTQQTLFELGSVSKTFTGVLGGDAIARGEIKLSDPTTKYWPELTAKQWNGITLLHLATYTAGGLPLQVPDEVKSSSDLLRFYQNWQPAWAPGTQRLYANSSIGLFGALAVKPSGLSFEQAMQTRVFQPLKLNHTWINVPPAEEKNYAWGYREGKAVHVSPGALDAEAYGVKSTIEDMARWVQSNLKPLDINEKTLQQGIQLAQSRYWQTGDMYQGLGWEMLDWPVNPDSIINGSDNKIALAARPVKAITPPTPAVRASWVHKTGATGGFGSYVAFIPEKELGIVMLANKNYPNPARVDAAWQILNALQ

Request: Suppose we examine the compound O=C1Nc2cccc(O)c2C1Cc1ccc2c(c1)CCCC2 (centres unmarked) ; what ↑ IC50 vs. 10x β-lactamase value has been reported?
Response: 6-fold

Request: For CCCC[n+]1ccc(-c2cc(C(=O)O)cc(-c3ccc(Cl)cc3)n2)cc1 then?
Response: 20-fold

Request: Here is the next compound: O=C(O)c1cc(-c2ccc(Cl)cc2)nc(-c2ccc(Nc3ccc(Cl)cc3)cc2)c1
Response: 4-fold

Request: Same again, this time with O=S(=O)(O)Cc1cc2cc(S(=O)(=O)O)c(/N=N/c3ccc(Br)cc3S(=O)(=O)O)c(O)c2c(O)c1/N=N/c1ccc(Br)cc1S(=O)(=O)O
Response: >50-fold

Request: Another compound: CC(C)(C)c1ccc(-c2cc(C(=O)O)cc(-c3ccc(Cl)c(O)c3)n2)cc1
Response: 12-fold

====

target: AmpC β-lactamase (Escherichia coli, UniProt P00811); assay: biochemical
Kindly supply the reported IC50 values for the records listed here.
// return numeric value only (unit: µM, not printed)

Request: Recorded IC50 for O=C(O)c1cc(-c2ccc(Cl)cc2)nc(-c2ccc(Nc3ccc(Cl)cc3)cc2)c1 , please?
Response: 2

Request: Also check CCCC[n+]1ccc(-c2cc(C(=O)O)cc(-c3ccc(Cl)cc3)n2)cc1
Response: 8

Request: How about O=S(=O)(O)Cc1cc2cc(S(=O)(=O)O)c(/N=N/c3ccc(Br)cc3S(=O)(=O)O)c(O)c2c(O)c1/N=N/c1ccc(Br)cc1S(=O)(=O)O ?
Response: 80

Request: How about O=C1Nc2cccc(O)c2C1Cc1ccc2c(c1)CCCC2 (stereo not drawn) ?
Response: 15

Request: What do you have for O=C1O/C(=C\Nc2ccc(Oc3ccccc3)cc2)c2ccccc21 [drawing 3] ?
Response: 5

Request: Queued: CC(C)(C)c1ccc(-c2cc(C(=O)O)cc(-c3ccc(Cl)c(O)c3)n2)cc1
Response: 4

====

molecular target: AmpC β-lactamase (Escherichia coli, UniProt P00811); conditions: Table 6; incubation with β-lactamase; 5 min
Please respond with reported ↓ IC50 with Incubation for every item in the list.

Request: Dear colleague, I am looking for the recorded ↓ IC50 with Incubation of the following compound: CCCC[n+]1ccc(-c2cc(C(=O)O)cc(-c3ccc(Cl)cc3)n2)cc1
Response: 24-fold

Request: Similarly, O=C1Nc2cccc(O)c2C1Cc1ccc2c(c1)CCCC2 (centres unmarked) ?
Response: 3-fold

Request: Let us now turn to O=C(O)c1cc(-c2ccc(Cl)cc2)nc(-c2ccc(Nc3ccc(Cl)cc3)cc2)c1
Response: 12-fold

Request: O=S(=O)(O)Cc1cc2cc(S(=O)(=O)O)c(/N=N/c3ccc(Br)cc3S(=O)(=O)O)c(O)c2c(O)c1/N=N/c1ccc(Br)cc1S(=O)(=O)O ?
Response: 2-fold

Request: Lookup CC(C)(C)c1ccc(-c2cc(C(=O)O)cc(-c3ccc(Cl)c(O)c3)n2)cc1
Response: >50-fold

====

test: Dynamic light scattering (DLS); format: physicochemical; conditions: DLS in 500 mM KPi
measured.property: Diameter, 500 mM KPi (nm)
Unit nm implied. Number only.

Request: Item under review: O=C(N/N=C/c1ccccc1O)C(=O)N/N=C/c1ccccc1O . Reported Diameter, 500 mM KPi?
Response: 426.6

Request: # repeat for O=C1C(I)=CC(=C(c2cc(I)c(O)c(I)c2)c2ccccc2C(=O)O)C=C1I
Response: 320.4

Request: Then CC(C)c1ccc(/C=C2/C(=O)Nc3ccccc32)cc1 ?
Response: 494.3

Request: Item: Oc1ccc(/N=N/c2ccc(Br)cc2)cc1 [drawing 40]
Response: 267.4

# credit: patent US6887658B2
